system: Streptococcus pyogenes 712; experiment: MIC by broth microdilution, SPY 712; type: cell-based; details: Streptococcus pyogenes, 712, read-out: MIC S PYO 712
Attribute measured: MIC

Molecule	Test target	Test value
CCCCCOc1ccc(S(=O)(=O)NCCCCCCNC(=O)Oc2cc(O)c3c(c2)[C@@H](C(=O)NC2C4CC5CC(C4)CC2C5)NC(=O)[C@H]2NC(=O)[C@H](NC(=O)[C@@H]4NC(=O)[C@H](CC(N)=O)NC(=O)[C@H](NC(=O)[C@@H](CC(C)C)NC)[C@H](O)c5ccc(c(Cl)c5)Oc5cc4cc(c5O[C@@H]4O[C@H](CO)[C@@H](O)[C@H](O)[C@H]4O[C@H]4C[C@](C)(N)[C@H](O)[C@H](C)O4)Oc4ccc(cc4Cl)[C@H]2O)c2ccc(O)c-3c2)cc1 (some centres unmarked)	Streptococcus pyogenes 712	0.01 to 0.5 µg/mL

Field: next molecule
Task: Requested read-out MIC, target or system Streptococcus pyogenes 712, entry CCCCCCc1ccc(S(=O)(=O)NCCCCCCNC(=O)Oc2cc(O)c3c(c2)[C@@H](C(=O)O)NC(=O)[C@H]2NC(=O)[C@H](NC(=O)[C@@H]4NC(=O)[C@H](CC(N)=O)NC(=O)[C@H](NC(=O)[C@@H](CC(C)C)NC)[C@H](O)c5ccc(c(Cl)c5)Oc5cc4cc(c5O[C@@H]4O[C@H](CO)[C@@H](O)[C@H](O)[C@H]4O[C@H]4C[C@](C)(N)[C@H](O)[C@H](C)O4)Oc4ccc(cc4Cl)[C@H]2O)c2ccc(O)c-3c2)cc1 (atropisomer, axis not shown)
Result: 0.01 to 0.5 µg/mL

###

test system: Staphylococcus aureus 757 (MRSA); test: MIC by broth microdilution, SA 757; type: cell-based; conditions: Staphylococcus aureus, MRSA, read-out: MIC SA 757
This section presents molecules with their documented MIC values.

Molecule	Test target	Test value
CCCCOc1ccc(CCNC(=O)Oc2cc(O)c3c(c2)[C@@H](C(=O)NC2C4CC5CC(C4)CC2C5)NC(=O)[C@H]2NC(=O)[C@H](NC(=O)[C@@H]4NC(=O)[C@H](CC(N)=O)NC(=O)[C@H](NC(=O)[C@@H](CC(C)C)NC)[C@H](O)c5ccc(c(Cl)c5)Oc5cc4cc(c5O[C@@H]4O[C@H](CO)[C@@H](O)[C@H](O)[C@H]4O[C@H]4C[C@](C)(N)[C@H](O)[C@H](C)O4)Oc4ccc(cc4Cl)[C@H]2O)c2ccc(O)c-3c2)cc1 (some centres unmarked)	Staphylococcus aureus 757 (MRSA)	0.01 to 0.5 µg/mL

Task: What measured MIC goes with CCOCCOCCNC(=O)Oc1cc(O)c2c(c1)[C@@H](C(=O)O)NC(=O)[C@H]1NC(=O)[C@H](NC(=O)[C@@H]3NC(=O)[C@H](CC(N)=O)NC(=O)[C@H](NC(=O)[C@@H](CC(C)C)NC)[C@H](O)c4ccc(c(Cl)c4)Oc4cc3cc(c4O[C@@H]3O[C@H](CO)[C@@H](O)[C@H](O)[C@H]3O[C@H]3C[C@](C)(N)[C@H](O)[C@H](C)O3)Oc3ccc(cc3Cl)[C@H]1O)c1ccc(O)c-2c1 (atropisomer, axis not shown) ?
Result: 4 to 8 µg/mL

###

This section presents compounds with their documented MIC values.
system: Staphylococcus aureus 2012 (VISA); test: MIC by broth microdilution, SA 2012; type: cell-based; settings: Staphylococcus aureus 2012 (VISA); class symbols; read-out: MIC SA 2012

Compound	Test value
CCCCCCc1ccc(S(=O)(=O)NCCCCCCNCc2c(O)cc3c(c2O)-c2cc(ccc2O)[C@H]2NC(=O)[C@@H]4NC(=O)[C@H](CC(N)=O)NC(=O)[C@H](NC(=O)[C@@H](CC(C)C)NC)[C@H](O)c5ccc(c(Cl)c5)Oc5cc4cc(c5O[C@@H]4O[C@H](CO)[C@@H](O)[C@H](O)[C@H]4O[C@H]4C[C@](C)(NC(C)=O)[C@H](O)[C@H](C)O4)Oc4ccc(cc4Cl)[C@@H](O)[C@H](NC2=O)C(=O)N[C@@H]3C(=O)O)cc1 (atropisomer, axis not shown) [Compound 363]	0.01 to 0.5 µg/mL

Field: next compound
Task: Requested read-out MIC, target or system Staphylococcus aureus 2012 (VISA), entry CCCCCOc1ccc(S(=O)(=O)NCCCCNCc2c(O)cc3c(c2O)-c2cc(ccc2O)[C@H]2NC(=O)[C@@H]4NC(=O)[C@H](CC(N)=O)NC(=O)[C@H](NC(=O)[C@@H](CC(C)C)NC)[C@H](O)c5ccc(c(Cl)c5)Oc5cc4cc(c5O[C@@H]4O[C@H](CO)[C@@H](O)[C@H](O)[C@H]4O[C@H]4C[C@](C)(NC(=O)CN)[C@H](O)[C@H](C)O4)Oc4ccc(cc4Cl)[C@@H](O)[C@H](NC2=O)C(=O)N[C@@H]3C(=O)O)cc1 (atropisomer, axis not shown) [Compound 346]
Result: 0.5 to 1 µg/mL
